Collected IC50 values appear next to each entry.
# measured_target: active p38 alpha enzyme (Upstate Biotechnology) (Homo sapiens)
# Construct: purchased Upstate Biotechnology
# Sequence (Q16539 whole entry): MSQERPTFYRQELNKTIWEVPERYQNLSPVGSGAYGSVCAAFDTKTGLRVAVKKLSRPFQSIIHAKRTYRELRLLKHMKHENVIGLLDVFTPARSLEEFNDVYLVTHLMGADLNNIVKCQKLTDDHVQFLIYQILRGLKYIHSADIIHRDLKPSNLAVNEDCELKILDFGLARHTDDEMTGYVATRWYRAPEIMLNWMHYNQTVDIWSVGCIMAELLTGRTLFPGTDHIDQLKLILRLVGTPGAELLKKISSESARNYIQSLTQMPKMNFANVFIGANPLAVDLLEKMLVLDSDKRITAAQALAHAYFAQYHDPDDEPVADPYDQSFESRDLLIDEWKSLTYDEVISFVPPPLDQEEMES
# experiment_description: p38α biochemical assay (ATP turnover, luminescent detection, Cambrex PKlight)
# assay_context: p38α kinase; Table 1 Biological Activity

- molecule: "CC(C)NC(=O)c1csc(-c2c(-c3ccc(F)cc3)noc2CN2CCN(c3ccc(C(F)(F)F)cn3)CC2)n1"
  measured_target: "active p38 alpha enzyme (Upstate Biotechnology) (Homo sapiens)"
  endpoint_name: "IC50"
  meas_value: "> 1 µM"
- molecule: "CCC(C)NC(=O)c1csc(-c2c(-c3ccc(F)cc3)n[nH]c2C2CCNCC2)n1 (stereo not drawn)"
  measured_target: "active p38 alpha enzyme (Upstate Biotechnology) (Homo sapiens)"
  endpoint_name: "IC50"
  meas_value: "≤ 1 µM"
- molecule: "CC(=O)c1cccc(NCc2nc(-c3ccc(F)cc3)c(-c3nc(C(=O)NC(C)C)cs3)o2)c1"
  measured_target: "active p38 alpha enzyme (Upstate Biotechnology) (Homo sapiens)"
  endpoint_name: "IC50"
  meas_value: "> 1 µM"
- molecule: "O=C(NCCCCO)c1csc(-c2c(-c3ccc(F)cc3)n[nH]c2C2CCNCC2)n1"
  measured_target: "active p38 alpha enzyme (Upstate Biotechnology) (Homo sapiens)"
  endpoint_name: "IC50"
  meas_value: "> 1 µM"
- molecule: "Cc1nc(-c2ccc(F)cc2)c(-c2nc(C(=O)NCCc3ccccc3F)cs2)s1"
  measured_target: "active p38 alpha enzyme (Upstate Biotechnology) (Homo sapiens)"
  endpoint_name: "IC50"
  meas_value: "≤ 1 µM"
- molecule: "COc1cccc(CCNC(=O)c2csc(-c3sc(C)nc3-c3ccc(F)cc3)n2)c1"
  measured_target: "active p38 alpha enzyme (Upstate Biotechnology) (Homo sapiens)"
  endpoint_name: "IC50"
  meas_value: "≤ 1 µM"

Task: Look at this molecule and give its reported IC50. O=C(NCCC(c1ccccc1)c1ccccc1)c1csc(-c2c(-c3ccc(F)cc3)n[nH]c2C2CCNCC2)n1
Output: > 1 µM

Task: Could you share which IC50 value was measured for Cc1nc(-c2ccc(F)cc2)c(-c2nc(C(=O)NCCCc3ccccc3)cs2)s1 ?
Output: > 1 µM

Task: If you can, please state the reported IC50 value of CC(C)NC(=O)c1csc(-c2c(-c3ccc(F)cc3)noc2CN(C)CC(O)c2ccc(O)cc2)n1 (stereo not drawn) .
Output: > 1 µM

Task: Given the entry CC(C)NC(=O)c1csc(-c2oc(CNCCc3ccc(S(N)(=O)=O)cc3)nc2-c2ccc(F)cc2)n1 , report its measured IC50.
Output: ≤ 1 µM

Task: Reported IC50 for CC(C)NC(=O)c1csc(-c2c(-c3ccc(F)cc3)n[nH]c2C2CCN(C(=O)c3ccccc3-c3ccccc3)CC2)n1 : what is it?
Output: > 1 µM

Task: Looking for the measured IC50 of COc1ccc(CNC(=O)c2csc(-c3c(-c4ccc(F)cc4)n[nH]c3C3CCNCC3)n2)cc1O , can you help?
Output: ≤ 1 µM

Task: Reported IC50 for COc1ccc(CNCc2onc(-c3ccc(F)cc3)c2-c2nc(C(=O)NC(C)C)cs2)cc1 : what is it?
Output: > 1 µM

Task: // query IC50 value for entry Cc1nc(-c2ccc(F)cc2)c(-c2nc(C(=O)N3CC(C)NC(C)C3)cs2)s1 (stereo not drawn)
Output: > 1 µM

Task: Which value of IC50 has been reported for CC(C)NC(=O)c1csc(-c2c(-c3ccc(F)cc3)noc2CNC(=O)C(Cc2ccccn2)NC(=O)OC(C)(C)C)n1 (stereo not drawn) in the records?
Output: > 1 µM

Task: Look at this molecule and give its reported IC50. CC(C)NC(=O)c1csc(-c2c(-c3ccc(F)cc3)noc2CNCc2ccc(Cl)cc2)n1
Output: > 1 µM

Task: // lookup IC50 for Cc1cccc(CNCc2nc(-c3ccc(F)cc3)c(-c3nc(C(=O)NC(C)C)cs3)o2)c1
Output: > 1 µM

Task: So what's the measured IC50 for this one? CC1(C)CC(NC(=O)c2csc(-c3c(-c4ccc(F)cc4)n[nH]c3C3CCNCC3)n2)CC(C)(C)N1
Output: > 1 µM

Task: // returns reported IC50 for input COc1ccc(Cl)cc1C(=O)N1CCC(c2[nH]nc(-c3ccc(F)cc3)c2-c2nc(C(=O)NC(C)C)cs2)CC1
Output: > 1 µM

Task: What value of IC50 has been recorded for this entry: COc1cccc(NC(=O)c2csc(-c3sc(C)nc3-c3ccc(F)cc3)n2)c1
Output: > 1 µM

Task: Item under review: CC(=O)NCC(=O)N1CCC(c2[nH]nc(-c3ccc(F)cc3)c2-c2nc(C(=O)NC(C)C)cs2)CC1 . Reported IC50?
Output: ≤ 1 µM

Provenance of the data: patent US20060252807A1
